Catalogue of compounds with associated solubility
- PROTOCOL DETAILS: Aqueous solubility of compound
- Format: physicochemical
- CONDITIONS USED: buffer

SMILES STR: Cc1cc(C(=O)O)nn1Cc1cc(Cl)cc2cc(-c3ccccc3)nn12
solubility: > 75 µM

Proceeding to the next compound to report its solubility.
Query string: What does the record list as solubility for COc1ccc2c(Cc3cccc(C(=O)O)n3)c(-c3ccccc3)nn2c1 ?
Result string: > 75 µM

* * *

Catalogue of molecules with associated AUC(0-inf)
- PROTOCOL DETAILS: AUC (0 to infinity) in rat at 1 mg/kg, iv
- Format: ADME, organism-based
- Design: dose 1 mg/kg, time infinity, route intravenous
- CONDITIONS USED: in vivo
API: value field is a number in ng·h/mL; no unit string.

Completed entries (count: 2):
SMILES STR: O=C(O)c1cccc(Cc2c(-c3ccccc3)nn3cc(C(F)(F)F)ccc23)n1
REPORTED VALUE: 4360

SMILES STR: COc1ccc2c(Cc3cccc(C(=O)O)n3)c(-c3ccccc3)nn2c1
REPORTED VALUE: 2780

Query string: What does the record list as AUC(0-inf) for O=C(O)c1cccc(Cc2c(-c3ccccc3)nn3cc(Cl)ccc23)n1 ?
Result string: 1590

* * *

- PROTOCOL DETAILS: Total clearance in rat at 1 mg/kg, iv
- Type: ADME, organism-based
- CONDITIONS USED: in vivo
Catalogue of molecules with associated clearance
API: value field is a number in mL/min/kg; no unit string.

SMILES STR: O=C(O)c1cccc(Cc2c(-c3ccccc3)nn3cc(C(F)(F)F)ccc23)n1
MEASURED PARAMETER: clearance
U: mL/min/kg
REPORTED VALUE: 3.84

SMILES STR: O=C(O)c1cccc(Cc2c(-c3ccccc3)nn3cc(Cl)ccc23)n1
MEASURED PARAMETER: clearance
U: mL/min/kg
REPORTED VALUE: 10.7

Proceeding to the next molecule to report its clearance.
Query string: What does the record list as clearance for COc1ccc2c(Cc3cccc(C(=O)O)n3)c(-c3ccccc3)nn2c1 ?
Result string: 6.12

* * *

Catalogue of compounds with associated Vd
- PROTOCOL DETAILS: Volume of distribution at steady state in rat at 1 mg/kg, iv
- Assay type: ADME, organism-based
- CONDITIONS USED: in vivo, read-out: Vdss
API: value field is a number in L/kg; no unit string.

SMILES STR: COc1ccc2c(Cc3cccc(C(=O)O)n3)c(-c3ccccc3)nn2c1
Vd / L/kg: 0.45
--
SMILES STR: O=C(O)c1cccc(Cc2c(-c3ccccc3)nn3cc(Cl)ccc23)n1
Vd / L/kg: 0.489

Query string: What does the record list as Vd for O=C(O)c1cccc(Cc2c(-c3ccccc3)nn3cc(C(F)(F)F)ccc23)n1 ?
Result string: 0.473

* * *

- PROTOCOL DETAILS: Initial plasma concentration in rat at 1 mg/kg, iv
- Format: ADME, organism-based
MEASURED PARAMETER: C0 (µg/mL)
API: value field is a number in µg/mL; no unit string.

SMILES STR: COc1ccc2c(Cc3cccc(C(=O)O)n3)c(-c3ccccc3)nn2c1
C0 / µg/mL: 2.66
--
SMILES STR: O=C(O)c1cccc(Cc2c(-c3ccccc3)nn3cc(C(F)(F)F)ccc23)n1
C0 / µg/mL: 2.43

Proceeding to the next molecule to report its C0.
Query string: What does the record list as C0 for O=C(O)c1cccc(Cc2c(-c3ccccc3)nn3cc(Cl)ccc23)n1 ?
Result string: 2.75

* * *

- TESTED SYSTEM: Prostaglandin E2 receptor EP1 subtype (Rattus norvegicus, UniProt P70597)
- Sequence (P70597 whole entry): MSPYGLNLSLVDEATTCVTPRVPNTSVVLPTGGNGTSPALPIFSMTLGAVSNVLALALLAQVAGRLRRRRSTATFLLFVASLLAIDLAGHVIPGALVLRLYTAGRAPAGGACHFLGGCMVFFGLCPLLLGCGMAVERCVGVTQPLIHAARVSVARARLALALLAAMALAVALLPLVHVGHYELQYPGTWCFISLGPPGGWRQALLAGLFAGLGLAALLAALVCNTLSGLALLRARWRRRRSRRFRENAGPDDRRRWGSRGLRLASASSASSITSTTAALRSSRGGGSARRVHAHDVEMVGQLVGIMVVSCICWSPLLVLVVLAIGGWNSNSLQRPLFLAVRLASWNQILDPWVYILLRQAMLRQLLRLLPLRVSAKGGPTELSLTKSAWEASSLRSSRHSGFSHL
- PROTOCOL DETAILS: Antagonist activity at rat His-tagged EP1 receptor expressed in African green monkey COS1 cells assessed as reduction in PGE2-induced increase in intracellular calcium level preincubated for 60 secs followed by PGE2 addition measured for 60 secs by Fluo 4-AM dye-based fluorescence assay
Catalogue of compounds with associated IC50
API: value field is a number in nM; no unit string.

Completed entries (count: 3):
SMILES STR: COc1cccc(-c2nn3cc(Cl)ccc3c2Cc2cccc(C(=O)O)n2)c1
REPORTED VALUE: 800
//
SMILES STR: C=C(C)c1ccc2c(Cc3cccc(C(=O)O)n3)c(-c3ccccc3)nn2c1
REPORTED VALUE: 290
//
SMILES STR: O=C(O)c1cccc(Cc2c(-c3ccsc3)nn3cc(Cl)ccc23)n1
REPORTED VALUE: 110

Proceeding to the next compound to report its IC50.
Query string: What does the record list as IC50 for COc1ccc2c(Cc3cncc(C(=O)O)n3)c(-c3ccccc3)nn2c1 ?
Result string: 4500

* * *

Catalogue of compounds with associated pIC50
- TESTED SYSTEM: Prostaglandin E2 receptor EP1 subtype (Rattus norvegicus)
- PROTOCOL DETAILS: Antagonist activity at rat His-tagged EP1 receptor expressed in African green monkey COS1 cells assessed as reduction in PGE2-induced increase in intracellular calcium level preincubated for 60 secs followed by PGE2 addition measured for 60 secs by Fluo 4-AM dye-based fluorescence assay
- Assay type: functional, cell-based
Value format note: pIC50 is -log10 of concentration (mol/L); just state the number.

Completed entries (count: 5):
SMILES STR: O=C(O)c1cccc(Cc2c(N3CCOCC3)nn3cc(Cl)ccc23)n1
TESTED SYSTEM: Prostaglandin E2 receptor EP1 subtype (Rattus norvegicus)
pIC50: 6.13
//
SMILES STR: O=C(O)c1cccc(Cc2c(-c3ccc(Cl)cc3)nn3cc(Cl)ccc23)n1
TESTED SYSTEM: Prostaglandin E2 receptor EP1 subtype (Rattus norvegicus)
pIC50: 5.96
//
SMILES STR: O=C(O)c1cccc(Cc2c(C3CC3)nn3cc(Cl)ccc23)n1
TESTED SYSTEM: Prostaglandin E2 receptor EP1 subtype (Rattus norvegicus)
pIC50: 5.82
//
SMILES STR: O=C(O)c1cccc(Cc2c(-c3ccccc3)nn3cc(C(F)(F)F)ccc23)n1
TESTED SYSTEM: Prostaglandin E2 receptor EP1 subtype (Rattus norvegicus)
pIC50: 7.80
//
SMILES STR: O=C(O)c1cccc(Cc2c(-c3ccccc3)nn3cc(F)ccc23)n1
TESTED SYSTEM: Prostaglandin E2 receptor EP1 subtype (Rattus norvegicus)
pIC50: 6.42

Query string: Form entry - test system: Prostaglandin E2 receptor EP1 subtype (Rattus norvegicus); read-out: pIC50; compound: CC(=O)c1ccc2c(Cc3cccc(C(=O)O)n3)c(-c3ccccc3)nn2c1
Result string: 5.96

Query string: Form entry - test system: Prostaglandin E2 receptor EP1 subtype (Rattus norvegicus); read-out: pIC50; compound: O=C(O)c1cccc(Cc2c(N3CCCC3)nn3cc(Cl)ccc23)n1
Result string: 5.74

Query string: Form entry - test system: Prostaglandin E2 receptor EP1 subtype (Rattus norvegicus); read-out: pIC50; compound: O=C(O)c1cccc(Cc2c(N3CCCCCC3)nn3cc(Cl)ccc23)n1
Result string: 5.85

Query string: Form entry - test system: Prostaglandin E2 receptor EP1 subtype (Rattus norvegicus); read-out: pIC50; compound: N#Cc1ccc2c(Cc3cccc(C(=O)O)n3)c(-c3ccccc3)nn2c1
Result string: 6.36

Query string: Form entry - test system: Prostaglandin E2 receptor EP1 subtype (Rattus norvegicus); read-out: pIC50; compound: O=C(O)c1cccc(Cc2c(-c3ccccc3)nn3cc(C4CC4)ccc23)n1
Result string: 6.72

Query string: Form entry - test system: Prostaglandin E2 receptor EP1 subtype (Rattus norvegicus); read-out: pIC50; compound: O=C(O)c1cccc(Cc2c(-c3ccoc3)nn3cc(Cl)ccc23)n1
Result string: 6.89

Query string: Form entry - test system: Prostaglandin E2 receptor EP1 subtype (Rattus norvegicus); read-out: pIC50; compound: COc1ccn2nc(-c3ccccc3)c(Cc3cccc(C(=O)O)n3)c2c1
Result string: 5.04

Query string: Form entry - test system: Prostaglandin E2 receptor EP1 subtype (Rattus norvegicus); read-out: pIC50; compound: CC(C)Cc1nn2cc(Cl)ccc2c1Cc1cccc(C(=O)O)n1
Result string: 6.70

Query string: Form entry - test system: Prostaglandin E2 receptor EP1 subtype (Rattus norvegicus); read-out: pIC50; compound: O=C(O)c1cccc(Cc2c(N3CCSCC3)nn3cc(Cl)ccc23)n1
Result string: 6.59

Query string: Form entry - test system: Prostaglandin E2 receptor EP1 subtype (Rattus norvegicus); read-out: pIC50; compound: CS(=O)(=O)c1ccc2c(Cc3cccc(C(=O)O)n3)c(-c3ccccc3)nn2c1
Result string: 5.27

Query string: Form entry - test system: Prostaglandin E2 receptor EP1 subtype (Rattus norvegicus); read-out: pIC50; compound: O=C(O)c1cccc(Cc2c(-c3ccccc3)nn3ccccc23)n1
Result string: 5.64

Query string: Form entry - test system: Prostaglandin E2 receptor EP1 subtype (Rattus norvegicus); read-out: pIC50; compound: O=C(O)c1cccc(Cc2c(-c3ccco3)nn3cc(Cl)ccc23)n1
Result string: 5.92

Query string: Form entry - test system: Prostaglandin E2 receptor EP1 subtype (Rattus norvegicus); read-out: pIC50; compound: O=C(O)c1cccc(Cc2c(-c3cccc(Cl)c3)nn3cc(Cl)ccc23)n1
Result string: 6.32

Query string: Form entry - test system: Prostaglandin E2 receptor EP1 subtype (Rattus norvegicus); read-out: pIC50; compound: O=C(O)c1cccc(Cc2c(C3CCCCC3)nn3cc(Cl)ccc23)n1
Result string: 5.92

Query string: Form entry - test system: Prostaglandin E2 receptor EP1 subtype (Rattus norvegicus); read-out: pIC50; compound: O=C(O)c1cccc(Cc2c(-c3ccccc3Cl)nn3cc(Cl)ccc23)n1
Result string: 6.19

Query string: Form entry - test system: Prostaglandin E2 receptor EP1 subtype (Rattus norvegicus); read-out: pIC50; compound: COc1ccc(-c2nn3cc(Cl)ccc3c2Cc2cccc(C(=O)O)n2)cc1
Result string: 5.27

Query string: Form entry - test system: Prostaglandin E2 receptor EP1 subtype (Rattus norvegicus); read-out: pIC50; compound: O=C(O)c1cccc(Cc2c(-c3cccs3)nn3cc(Cl)ccc23)n1
Result string: 5.96
